The measured values listed here are drawn from the supplement of paper PMC10567573.

Kindly state protein stability index for each of the entries shown.
B1: KLHL12 (parent)
chain: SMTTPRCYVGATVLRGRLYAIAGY

variants of: B1; assay: protein stability index of a GFP-peptide fusion (GPS, HEK-293T) (PSI 1-6); higher = more stable; conditions: c terminus: a fixed tail appended;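 further: lentivirally expressed fusions sorted by FACS into six bins by GFP to DsRed ratio, PSI derived from sequencing read proportions per bin multiplied by bin number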
Numbers only.

Mutation Label	Property Name	Numeric Readout
G16Q	protein stability index	1.45

Provide protein stability index values for the following items, in order.
1. R17S
2. V9P

// result
3.1
1.7

# batch: return protein stability index for each of the 3 variants below
1. Y24N
2. R15D
3. Y8K

// result
1. 1.75
2. 2.78
3. 2.88

Lab note: each variant below needs its protein stability index filled in.
1. L18S
2. I21C
3. A11M
4. V9M
5. R15A
6. R15W
7. M2T
8. A11P

// result
1.36
1.37
2
2.43
2.33
1.66
2.22
2.17

Hey, quick one: what's protein stability index for each of these?
1. R17H
2. A11E
3. R15P
4. T4V
5. P5M

// result
[2.17, 1.5, 1.88, 2.65, 2.98]

Give protein stability index for each listed item.
1. V9Q
2. A20G
3. Y8W

// result
1.96
2.11
1.82

Give measured protein stability index for every item shown.
1. G23F
2. C7M
3. L18C
4. G10H
5. S1N

// result
2.6
4.32
2.93
1.85
1.9

// batch mode: one protein stability index value per listed entry
1. G16C
2. T12F

// result
1. 2.22
2. 2.4

Return reported protein stability index values for all items listed beneath this line.
1. T3V
2. T12C
3. A22E
4. V9D
5. V13E
6. Y8T

// result
1: 2.36; 2: 2.41; 3: 2.3; 4: 1.4; 5: 2.69; 6: 2.12
